Record type: IC50 measurement. Applies to: 6×HIS-tankyrase 2 (946-1162) (Homo sapiens (Human))
observation_type: IC50 (nM)

(I) O=C(CSc1nc2ccccc2c(=O)[nH]1)N[C@H]1CC[C@H](n2c(=O)[nH]c3cc(Cl)ccc32)CC1
(II) Cc1ccc2c(c1)[nH]c(=O)n2C1CCN(C(=O)CCCc2nc3ccccc3c(=O)[nH]2)CC1
(III) O=C(CCCc1nc2ccccc2c(=O)[nH]1)N1CCN(c2nsc3ccccc23)CC1
(IV) O=C(CCCc1nc2ccccc2c(=O)[nH]1)N1CCC(n2c(=O)[nH]c3cc(C(F)(F)F)ccc32)CC1
[ask] # descending IC50 order for the listed compounds # respond with the labels, arranged in the requested order
[reply] III, I, II, IV
(III: 451 nM, I: 2.52 nM, II: 1.6 nM, IV: 0.193 nM)

====

- target: 6×HIS-tankyrase1 (1091-1325) (Homo sapiens (Human), UniProt O95271)
- Sequence (O95271 1091-1325): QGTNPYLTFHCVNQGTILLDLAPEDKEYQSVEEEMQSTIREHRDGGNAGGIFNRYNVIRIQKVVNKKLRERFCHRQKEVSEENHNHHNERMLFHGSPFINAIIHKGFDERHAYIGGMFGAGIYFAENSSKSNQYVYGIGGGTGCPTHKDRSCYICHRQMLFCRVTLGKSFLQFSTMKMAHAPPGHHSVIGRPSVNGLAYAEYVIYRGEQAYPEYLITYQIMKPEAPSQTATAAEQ
- protocol: Tankyrase 1 biochemical assay (AlphaLisa, PARsylation)
- conditions: 400 nM NAD, 60 minutes at RT; read-out: TNKS1 IC50
pIC50: −log10 of the molar value.
observation_type: pIC50

Below: 4 compounds and their reported pIC50.
| compound | recorded_result |
| --- | --- |
| O=C(CCSc1nc2ccc(F)cc2c(=O)[nH]1)N[C@H]1CC[C@H](c2nnc(-c3ccccc3)o2)CC1 | 9.83 |
| COc1ccc(-c2nnc([C@H]3CC[C@H](NC(=O)CCCc4nc5ccccc5c(=O)[nH]4)CC3)o2)cc1 | 9.25 |
| O=C(CCCc1nc2ccccc2c(=O)[nH]1)N[C@H]1CC[C@H](c2nnc(-c3cccc(Cl)c3)o2)CC1 [Example 36, 2,2,2-trifluoroacetate] | 9.44 |
| O=C(CSc1nc2ccccc2c(=O)[nH]1)N[C@H]1CC[C@H](n2c(=O)[nH]c3cc(Cl)ccc32)CC1 | 10.22 |

(P) O=C(CCc1nc2ccccc2c(=O)[nH]1)N[C@H]1CC[C@H](n2c(=O)[nH]c3ccc(Cl)cc32)CC1
(Q) N#Cc1cccc(-c2nnc([C@H]3CC[C@H](NC(=O)CCc4nc5ccccc5c(=O)[nH]4)CC3)o2)c1
[ask] Out of P and Q , name the one with the higher pIC50. Kindly give the label for the entry you pick.
[reply] P
(P: 9.00, Q: 6.66)

====

- Test system: Axin2 accumulation in SW480 cells
- protocol: Axin2 384 immunofluorescence assay
- Assay type: cell-based
- conditions: Homo sapiens; SW480 cells, 24 hours; read-out: Axin2 384 IF EC50
pEC50: −log10 of the molar value.
observation_type: pEC50

| smiles_repr | target | pEC50 |
| --- | --- | --- |
| O=C(CCc1nc2ccccc2c(=O)[nH]1)N[C@H]1CC[C@H](c2nnc(-c3cccc(F)c3)o2)CC1 | Axin2 accumulation in SW480 cells | 6.36 |
| O=C(CCCc1nc2ccccc2c(=O)[nH]1)N1CCC(c2n[nH]c3ccccc23)CC1 | Axin2 accumulation in SW480 cells | 6.38 |

(P) Cc1ccc2[nH]c(=O)n(C3CCN(C(=O)CCCc4nc5ccccc5c(=O)[nH]4)CC3)c2c1
(Q) O=C(CCSc1nc2ccccc2c(=O)[nH]1)N[C@H]1CC[C@H](n2c(=O)[nH]c3cc(Cl)ccc32)CC1
[ask] Response body: label of entry with the larger pEC50; valid values P , Q . Respond with the label that goes with your answer.
[reply] Q
(Q: 8.47, P: 6.19)

====

- System: Axin2 accumulation in SW480 cells
- protocol: Axin2 384 immunofluorescence assay
- Assay type: cell-based
- conditions: Homo sapiens; SW480 cells, 24 hours; read-out: Axin2 384 IF EC50
pEC50: −log10 of the molar value.
observation_type: pEC50

(1) Cn1c(=O)n(C2CCN(C(=O)CCCc3nc4ccccc4c(=O)[nH]3)CC2)c2ccc(Cl)cc21 [Example 45]
(2) O=C(CCCc1nc2ccccc2c(=O)[nH]1)N1CCC(c2nnc(-c3ccc(F)c(Cl)c3)o2)CC1 [Example 25]
[ask] Just curious, which one has the larger pEC50 reading, 1 or 2 ? Your answer should be the label of the entry you select.
[reply] 2

(P) O=C(CCc1nc2ccccc2c(=O)[nH]1)N[C@H]1CC[C@H](n2c(=O)[nH]c3ccccc32)CC1 [Example 84]
(Q) O=C(CCCc1nc2ccccc2c(=O)[nH]1)N1CC=C(n2c(=O)[nH]c3ccccc32)CC1 [Example 46, trifluoroacetic acid]
[ask] Kindly compare P with Q and tell me which has the lower pEC50 figure. Answer by quoting the chosen item's label.
[reply] Q
(Q: 5.32, P: 5.75)

(P) N#Cc1ccccc1O[C@H]1CC[C@H](NC(=O)CCCc2nc3ccccc3c(=O)[nH]2)CC1 [Example 57]
(Q) COc1ccc2[nH]c(=O)n(C3CCN(C(=O)CCCc4nc5ccccc5c(=O)[nH]4)CC3)c2c1 [Example 34]
[ask] Kindly identify which of P and Q has the larger recorded pEC50 value. Mark your selection by writing its label.
[reply] Q

(a) O=C(CSc1nc2ccccc2c(=O)[nH]1)N[C@H]1CC[C@H](Oc2ccc(F)cc2)CC1 [Example 99]
(b) O=C(CCCc1nc2ccccc2c(=O)[nH]1)N1CCC(c2nnc(-c3cccc(Cl)c3)o2)CC1 [Example 3]
[ask] // which entry has the larger pEC50 value, a or b ? State your choice using its label.
[reply] b

====

- target: PARP2 (Homo sapiens (Human))
- Sequence (Q9UGN5 whole entry): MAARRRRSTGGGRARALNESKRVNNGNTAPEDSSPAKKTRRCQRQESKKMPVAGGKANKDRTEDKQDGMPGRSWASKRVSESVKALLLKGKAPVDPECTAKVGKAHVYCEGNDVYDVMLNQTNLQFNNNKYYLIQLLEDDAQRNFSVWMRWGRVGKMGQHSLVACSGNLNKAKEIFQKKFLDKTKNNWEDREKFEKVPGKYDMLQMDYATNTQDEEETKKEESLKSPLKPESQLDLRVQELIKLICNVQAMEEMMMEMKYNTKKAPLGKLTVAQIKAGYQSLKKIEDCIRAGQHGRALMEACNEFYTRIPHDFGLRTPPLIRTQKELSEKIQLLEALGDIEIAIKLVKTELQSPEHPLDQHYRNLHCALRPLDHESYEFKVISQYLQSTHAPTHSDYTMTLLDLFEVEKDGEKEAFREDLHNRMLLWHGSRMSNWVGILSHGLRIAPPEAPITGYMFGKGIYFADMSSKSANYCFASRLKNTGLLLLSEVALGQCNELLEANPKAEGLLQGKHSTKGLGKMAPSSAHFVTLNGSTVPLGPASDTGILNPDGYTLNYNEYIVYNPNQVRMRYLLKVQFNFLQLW
pIC50: −log10 of the molar value.
observation_type: pIC50

Below, 10 compounds whose answers are already recorded.
| compound | pIC50 |
| --- | --- |
| O=C(CCc1nc2ccccc2c(=O)[nH]1)N[C@H]1CC[C@H](c2nnc(-c3ccc(Cl)cc3)o2)CC1 [Example 141] | 6.17 |
| O=C(CCSc1nc2ccccc2c(=O)[nH]1)N[C@H]1CC[C@H](c2nnc(-c3ccccc3)o2)CC1 [Example 97] | 5.61 |
| O=C(CCCc1nc2ccccc2c(=O)[nH]1)N1CCC(c2nnc(-c3ccc(F)cc3)o2)CC1 [Example 6] | 6.11 |
| O=C(CCCc1nc2ccccc2c(=O)[nH]1)N1CCC(n2c(=O)[nH]c3ncccc32)CC1 [Example 47, trifluoroacetic acid] | 5.80 |
| O=C(CCCc1nc2ccccc2c(=O)[nH]1)N1CCC(n2c(=O)[nH]c3cc(F)ccc32)CC1 [Example 51, trifluoroacetic acid] | 6.26 |
| O=C(CCCc1nc2ccccc2c(=O)[nH]1)N1CCC(c2n[nH]c3ccccc23)CC1 [Example 48, trifluoroacetic acid] | 5.87 |
| O=C(CCSc1nc2c(c(=O)[nH]1)CCCC2)N[C@H]1CC[C@H](c2nnc(-c3ccccc3)o2)CC1 [Example 115] | 5.95 |
| O=C(CCSc1nc2ccccc2c(=O)[nH]1)N[C@H]1CC[C@H](Oc2ccccn2)CC1 [Example 107] | 5.47 |
| O=C(CCc1nc2ccccc2c(=O)[nH]1)N[C@H]1CC[C@H](c2nnc(-c3ccncc3)o2)CC1 [Example 132] | 5.58 |
| O=C(CCc1nc2ccccc2c(=O)[nH]1)N[C@H]1CC[C@H](c2nnc(C3CCCCC3)o2)CC1 [Example 138] | 5.58 |

(I) O=C(CCCc1nc2ccccc2c(=O)[nH]1)N1CCC(c2nnc(-c3ccccc3)s2)CC1 [Example 9]
(II) N#Cc1ccc(O[C@H]2CC[C@H](NC(=O)CCCc3nc4ccccc4c(=O)[nH]3)CC2)cc1 [Example 78]
[ask] Pick one: I or II . Which has the bigger pIC50 number? # reply format: chosen label
[reply] II
(II: 6.61, I: 6.33)

====

Let's go through some recorded IC50 values for PARP1 (Homo sapiens (Human)) together.
observation_type: IC50 (µM)

Some molecules with known IC50 results, for comparison:
| smiles_repr | observation_type | recorded_result |
| --- | --- | --- |
| O=C(CCc1nc2ccccc2c(=O)[nH]1)N[C@H]1CC[C@H](c2nnc(-c3ncccn3)o2)CC1 | IC50 | 4.62 |
| N#Cc1ccc2c(c1)[nH]c(=O)n2C1CCN(C(=O)CCCc2nc3ccccc3c(=O)[nH]2)CC1 | IC50 | 0.636 |
| Cc1ccc2c(c1)[nH]c(=O)n2C1CCN(C(=O)CCCc2nc3ccccc3c(=O)[nH]2)CC1 | IC50 | 0.867 |

(I) O=C(CCc1nc2ccccc2c(=O)[nH]1)N[C@H]1CC[C@H](c2nnc(-c3ccccn3)o2)CC1
(II) O=C(CCc1nc2c(c(=O)[nH]1)CCCN2)N[C@H]1CC[C@H](c2nnc(-c3ccccc3)o2)CC1
(III) O=C(CCCc1nc2ccccc2c(=O)[nH]1)N1CCC(c2nnc(-c3ccc(F)c(Cl)c3)o2)CC1
[ask] Hello, I need these entries ordered by IC50, highest reading first. Thanks! # format: label list in the order the request specifies
[reply] I, II, III
(I: 5.65 µM, II: 3.5 µM, III: 2.3 µM)
